Hello, the source for this data is patent US11654036B2, in case you need it.

Experiment: Coated balloon tissue concentration in vivo (Table 7)
Parameters: species or system porcine
Conditions: pig, 300 μg, coronary artery tissue, within or at 15 min; read-out: tissue concentration of tissue adjacent to the balloon treated segment
experimental readout: concentration at 15 min

Q) Reported concentration at 15 min, compound O=C(NC[C@H]1CN(c2ccc(N3CCOCC3=O)cc2)C(=O)O1)c1ccc(Cl)s1 [Rivaroxaban] : ____
A) ≥ 1230 ng/g

====

Assay: Tissue drug concentration in stented and adjacent artery segments (LCMS)
Assay type: in vivo, porcine
Settings: pig, artery tissue adjacent to the stented segment, other: drug eluting stent implanted in coronary artery, within one hour from injury and/or implant; Table 4B, stent arm not named
experimental readout: concentration at 1 h

Q) # query: concentration at 1 h of entry O=C(NC[C@H]1CN(c2ccc(N3CCOCC3=O)cc2)C(=O)O1)c1ccc(Cl)s1
A) ~38000 ng/g

====

Assay: Tissue drug concentration in stented and adjacent artery segments (LCMS)
Assay type: in vivo, porcine
Conditions: pig, artery tissue adjacent to the stented segment, other: drug eluting stent implanted in coronary artery, within 28 days; Table 4B, stent arm not named
experimental readout: concentration at 28 days

Q) Any idea what its concentration at 28 days is? The compound is CO[C@H]1C[C@@H]2CC[C@@H](C)[C@@](O)(O2)C(=O)C(=O)N2CCCC[C@H]2C(=O)O[C@H]([C@H](C)C[C@@H]2CC[C@@H](O)[C@H](OC)C2)CC(=O)[C@H](C)/C=C(\C)[C@@H](O)[C@@H](OC)C(=O)[C@H](C)C[C@H](C)/C=C/C=C/C=C/1C
A) ~940 ng/g

From here, focus on the item given below.
Q) Item O=C(NC[C@H]1CN(c2ccc(N3CCOCC3=O)cc2)C(=O)O1)c1ccc(Cl)s1 has what recorded concentration at 28 days?
A) ~340 ng/g

====

Recorded measurements of concentration at 90 days, one per entry
Assay: Tissue drug concentration in stented and adjacent artery segments (LCMS)
Format: in vivo, porcine
Details: pig, artery tissue adjacent to the stented segment, other: drug eluting stent implanted in coronary artery, within 90 days; Table 4B, stent arm not named

Q) Given CC1CNc2c(cccc2S(=O)(=O)N[C@@H](CCCNC(=N)N)C(=O)N2CC[C@@H](C)C[C@@H]2C(=O)O)C1 (some centres unmarked) , state its recorded concentration at 90 days.
A) ~3740 ng/g

// below: concentration at 90 days requested for another compound
Q) Tell me the measured concentration at 90 days of CO[C@H]1C[C@@H]2CC[C@@H](C)[C@@](O)(O2)C(=O)C(=O)N2CCCC[C@H]2C(=O)O[C@H]([C@H](C)C[C@@H]2CC[C@@H](O)[C@H](OC)C2)CC(=O)[C@H](C)/C=C(\C)[C@@H](O)[C@@H](OC)C(=O)[C@H](C)C[C@H](C)/C=C/C=C/C=C/1C , please.
A) ~1280 ng/g

====

Assay: Tissue drug concentration in stented and adjacent artery segments (LCMS)
Type: in vivo, porcine
Conditions: pig, artery tissue adjacent to the stented segment, other: drug eluting stent implanted in coronary artery, within 3 hours; Table 4B, stent arm not named
experimental readout: concentration at 3 h

Q) Name the recorded concentration at 3 h for O=C(NC[C@H]1CN(c2ccc(N3CCOCC3=O)cc2)C(=O)O1)c1ccc(Cl)s1 [Rivaroxaban] .
A) ~21000 ng/g

Okay, now this molecule:
Q) # get_value(readout='concentration at 3 h', item= CO[C@H]1C[C@@H]2CC[C@@H](C)[C@@](O)(O2)C(=O)C(=O)N2CCCC[C@H]2C(=O)O[C@H]([C@H](C)C[C@@H]2CC[C@@H](O)[C@H](OC)C2)CC(=O)[C@H](C)/C=C(\C)[C@@H](O)[C@@H](OC)C(=O)[C@H](C)C[C@H](C)/C=C/C=C/C=C/1C [Sirolimus, rapamycin (also called sirolimus)] )
A) ~27000 ng/g
